System: NCI-H522 lung
protocol-text: NCI tumour cell line growth inhibition, 48 h
measured-attribute: TGI (µM)
The reply should be a number in µM, with the unit left off.

compound="C/C=C(/CCC1NCCC2c3ccccc3NC12)[Si](C)(C)C (centres undefined)" endpoint_unit=µM quantitative_result=30.2
compound=O=C(N/C(=C\c1ccc(/C=C(\NC(=O)c2ccccc2)c2nc3cc(Cl)ccc3[nH]2)cc1)c1nc2cc(Cl)ccc2[nH]1)c1ccccc1 endpoint_unit=µM quantitative_result=53.8
compound="COC1=C(Br)C(O)C2(C=C1Br)CC(C(=O)NCCCCNC(=O)C1=NOC3(C=C(Br)C(OC)=C(Br)C3O)C1)=NO2 (centres undefined)" endpoint_unit=µM quantitative_result=29.8

Form field TGI, entry COC(=O)C[CH2][Ge]([CH3])([CH3])[S]c1ccccc1 : 23.2

Form field TGI, entry COc1ccc(-c2nn(-c3cccc(NC(=O)Nc4ccccc4)c3)cc2-c2ccncc2)cc1Cl : 7.22

Form field TGI, entry Cc1cccc2nc3cccc(C(=O)NCCNCCNCCNC(=O)c4cccc5nc6cccc(C)c6nc45)c3nc12 : 0.159

Form field TGI, entry O=C(N=Nc1c(O)[nH]c2ccccc12)c1oc2ccccc2c1CN1CCN(c2ccccc2)CC1 : 19.3

Form field TGI, entry COC1=CC(=O)c2c(cc(COP(=O)(OCC3OC(n4cc(F)c(=O)[nH]c4=O)CC3O)N(C)CCCCCl)n2C)C1=O (centres undefined) : 19.1

Form field TGI, entry CNc1cc2nc3cc(NC)c(C)cc3cc2cc1C : 5.06

Form field TGI, entry CCOC(=O)c1ccc2c(c1)nc(/C=C/c1ccc(Cl)cc1)n2-c1cc(C(C)(C)C)[nH]n1 : 10.6

Form field TGI, entry Cc1cc2c(C(C)C)c(O)c(O)c(C=NCCO)c2c(O)c1-c1c(C)cc2c(C(C)C)c(O)c(O)c(C=NCCO)c2c1O : 4.78

###

Tested on: HCT-116 colon
protocol-text: NCI tumour cell line growth inhibition, 48 h; in the data active means GI50 below about 0.43 µM; inactive means the rest
Hello, when you answer, please use one of the following outcomes: true for active, false for inactive

compound="CC1SC2(CCC(c3ccccc3)CC2)N(NC(=O)c2[nH]c3ccc(F)cc3c2-c2ccccc2)C1=O (centres undefined)" label_class=false
compound=CCN(CC)CCOc1ccc(/C=C2\C[C@H]3[C@H]4CC=C5C[C@@H](O)CC[C@]5(C)[C@H]4CC[C@]3(C)[C@H]2O)cc1OC label_class=false
compound=Fc1ccc(-c2nn3c(-c4cc(C(F)(F)F)cc(C(F)(F)F)c4)nnc3s2)cc1 label_class=false

Input: Could you kindly confirm the outcome this assay logged for NC1CCC(Nc2nc(NCc3cc(Cl)ccc3O)c3ncn(C4CCCC4)c3n2)CC1 (centres undefined) ?
Output: true

###

Tested on: K-562 leukemia
protocol-text: NCI tumour cell line growth inhibition, 48 h
measured-attribute: TGI

Form field TGI, entry N#Cc1ccsc1NC(=O)COC(=O)c1cccc(S(=O)(=O)N2CCc3ccccc32)c1 : > 100 µM

Form field TGI, entry COC(=O)C1(C(=O)OC)N=C(C)OC1c1ccccn1 (stereo unspecified) : > 100 µM

Form field TGI, entry COc1cc(CNC2=NCCC2)cc(OC)c1OC : > 100 µM

Form field TGI, entry Cc1[nH]c(C(=O)Nc2ccccc2OC2CCNCC2)c(Cl)c1Cl : 5.26 µM

Form field TGI, entry CCOc1ccc2c(C)cc(=O)oc2c1 : > 100 µM

Form field TGI, entry Cc1cccc2nc3cccc(C(=O)NCCNCCNCCNC(=O)c4cccc5nc6cccc(C)c6nc45)c3nc12 : 9.37 µM

###

Test system: MCF7 breast
protocol-text: NCI tumour cell line growth inhibition, 48 h
Consider the following molecules and their measured TGI readings.

// solved cases for TGI follow
molecule="Cn1c2ccccc2c(=O)c2c(O)cc3c(c21)CC(C1(C)CO1)O3 (stereo unspecified)" result="1.89 µM"
molecule="Cc1cc(S(=O)(=O)NC2=NC(c3ccccc3)c3cc(Cl)ccc3N2)c(S)cc1Cl (stereo unspecified)" result="> 100 µM"
molecule=O=C1CCCC(=O)N1n1c(Cc2ccccc2)n[nH]c1=O result="> 100 µM"
molecule="CN1C(=O)C(C(N)=O)C2CC1(C)Oc1ccccc12 (stereo unspecified)" result="> 100 µM"

Form field TGI, entry c1ccc(Nc2nc(-c3ccccn3)cs2)nc1 : > 100 µM

Form field TGI, entry COc1ccc(-c2nn(-c3cccc(NC(=O)Nc4ccccc4)c3)cc2-c2ccncc2)cc1Cl : 4.91 µM

###

Consider the following molecules and their measured TGI readings.
Test system: HCC-2998 colon
protocol-text: NCI tumour cell line growth inhibition, 48 h

// solved cases for TGI follow
molecule=CCCCCCCCCCCCCCCC(=O)N[C@H](/C=C/[C@H](O)CCCCCCCCCCCCC)CO result="> 100 µM"
molecule=N#CC1(Nc2ccc(-c3ccc(NC4(C#N)CCCC4)cc3)cc2)CCCC1 result="> 100 µM"
molecule=N#Cc1cc([N+](=O)[O-])ccc1NC(=O)C(F)(F)F result="> 100 µM"

Form field TGI, entry N#Cc1ccsc1NC(=O)COC(=O)c1cccc(S(=O)(=O)N2CCc3ccccc32)c1 : > 100 µM

Form field TGI, entry COc1cccc(C2ON=C(c3ccccc3)N2C23CC4CC(CC(C4)C2)C3)c1 (stereo not drawn) : > 10 µM

Form field TGI, entry N=C(N)SCc1cc(Cl)cc(Cl)c1O : 31.9 µM

Form field TGI, entry Cc1cccc2nc3cccc(C(=O)NCCNCCNCCNC(=O)c4cccc5nc6cccc(C)c6nc45)c3nc12 : 0.837 µM

Form field TGI, entry CNc1cc2nc3cc(NC)c(C)cc3cc2cc1C : 14.7 µM

###

Tested on: A498 renal
protocol-text: NCI tumour cell line growth inhibition, 48 h; in the data active means GI50 below about 0.43 µM; inactive means the rest
Hello, when you answer, please use one of the following outcomes: yes for active, no for inactive

Below, 4 compounds whose answers are already recorded.
compound="O=c1c2c(c3ccccc3n1-c1ccccc1)NC(=S)NC2c1ccc(Cl)cc1 (stereo not given)" target_entity="A498 renal" label_class=no
compound=O=C1C(=O)c2ccccc2C(O)=C1CCCc1ccc(C2CCCC2)cc1 target_entity="A498 renal" label_class=no
compound=Nc1ccccc1NC(=O)c1ccc(CN2CCC/C(=C\c3ccccn3)C2=O)cc1 target_entity="A498 renal" label_class=no
compound=CCN(Cc1ccccc1Cl)c1ccc(CO)c(Cl)c1 target_entity="A498 renal" label_class=yes

Here is another compound to look at.
Input: Could you kindly confirm the outcome this assay logged for Clc1nc(Cl)c2c3c(sc2n1)CCCC3 ?
Output: no

###

Test system: SN12C renal
protocol-text: NCI tumour cell line growth inhibition, 48 h
Consider the following molecules and their measured TGI readings.

molecule="C=C1CC[C@@H]2[C@](C)(COC(C)=O)[C@H](OC(C)=O)CC[C@@]2(C)[C@@H]1CC(Nc1ccc(S(=O)(=O)Nc2cc(C)on2)cc1)C1=CCOC1=O (stereo not given in full)" measured_attribute=TGI result="4.52 µM"
molecule=COc1ccc2c(Cc3c4ccccc4cc4ccccc34)cncc2c1O measured_attribute=TGI result="> 63.9 µM"

Form field TGI, entry N#CCCN(CCC#N)c1ccc(C(N=Nc2ccccc2)=Nc2ccc(Cl)cc2)cc1 : > 100 µM

Form field TGI, entry COC(=O)C(C(=O)C(=O)Nc1ccccc1C#N)c1nc2ccc([N+](=O)[O-])cc2[nH]c1=O (stereo not given) : > 100 µM

Form field TGI, entry Cc1cc2oc(-c3ccccc3)c(C)c(=O)c2c2c1OC(C)(C)S2 : > 100 µM

###

Consider the following molecules and their measured log10 TGI readings.
Test system: NCI-H522 lung
protocol-text: NCI tumour cell line growth inhibition, 48 h
In plain terms, each number is the log10 of measured TGI in µM.

// solved cases for log10 TGI follow
molecule=O=C1C=CC(=Nc2ccccc2)c2ccccc21 quantitative_result=1.37
molecule=O=C(/C=C/c1ccccc1Cl)c1cccc2ccccc12 quantitative_result=1.27
molecule=NC(=O)C(=CNC(=S)Nc1ccc(Cl)c(Cl)c1)C(N)=O quantitative_result=1.86
molecule=COc1ccc2c(c1)[n+]([O-])c(-c1ccc(Br)cc1)c(N)[n+]2[O-] quantitative_result=1.47
molecule=COc1cccc(-n2cc(-c3nc(Nc4cc(C)[nH]n4)c4ccccc4n3)nn2)c1 quantitative_result=1.01

Record NC1(C(=O)O)CCc2ccc(N(CCCl)CCCl)cc2C1 (stereo not drawn) ; system NCI-H522 lung; log10 TGI = 1.87

Record CC(C)=CCC1=C(OCC(=O)O)C(=O)c2ccccc2C1=O ; system NCI-H522 lung; log10 TGI = 1.76

Record CN(C)CCC=C1c2ccccc2C(C)(C)c2ccccc21 ; system NCI-H522 lung; log10 TGI = 1.57

Record Cc1ccc(/C=C/C(=N/N=C(N)N)c2ccccc2)cc1 ; system NCI-H522 lung; log10 TGI = 0.71

Record COc1ccc2c(Cc3c4ccccc4cc4ccccc34)cncc2c1O ; system NCI-H522 lung; log10 TGI = 1.33

Record CC(=O)Oc1c2c(c(CC=C(C)C)c3c1C(=O)C1=C[C@@H]4CC5C(C)(C)OC(C/C=C(/C)C(=O)O)(C4=O)[C@@]15O3)OC(C)(CCC=C(C)C)C=C2 (stereo partly drawn) ; system NCI-H522 lung; log10 TGI = -0.55

Record Cc1cc(C)nc(SCC(=O)OC2CC(C)CCC2C(C)C)n1 (stereo not drawn) ; system NCI-H522 lung; log10 TGI = 1.66
